# procedureDetails: recombinant barcode read abundance after kanamycin selection (control-corrected) (log10(CPM+1)); higher = more efficient recombination; sequences stand for … in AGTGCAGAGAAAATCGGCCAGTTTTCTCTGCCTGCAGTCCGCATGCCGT…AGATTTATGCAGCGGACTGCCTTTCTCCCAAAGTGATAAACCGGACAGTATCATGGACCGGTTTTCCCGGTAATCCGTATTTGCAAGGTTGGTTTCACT; site = the 11-nt target;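 also: IS621 recombinase and bridge RNA in Escherichia coli cells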
Entry flag: 1 (yes) if recombinant barcode read abundance (log10) reaches 0.1; 0 (no) if it does not.

In [3]: df
Out[3]:
                                         seq  qualitativelabel
 0  AGTAGGGCTTGGGTTCTAACCTGTTGCAG (site AGTAGGGCTCT)           1 (yes)
 1  GACTGGCCTTGGGTTCTAACCTGTTGCTT (site GACTGGCCTAA)           1 (yes)
 2  CGCTTGTCTTGGGTTCTAACCTGTTGCCT (site CGCTTGTCTAG)           1 (yes)
 3  TACGAACCTTGGGTTCTAACCTGTTGCGT (site TACGAACCTAC)           1 (yes)
 4  GTCAGATCTTGGGTTCTAACCTGTTGCTT (site TCGTTCGCTCG)            0 (no)
 5  ATGCCGACTTGGGTTCTAACCTGTTGCCT (site ATGCCCACTAG)            0 (no)
 6  ATTACTACTTGGGTTCTAACCTGTTGCCT (site ACTACTACTAG)            0 (no)
 7  CTGCATACTTGGGTTCTAACCTGTTGCCT (site CGGCATACTAG)            0 (no)
 8  CTCTACACTTGGGTTCTAACCTGTTGCTG (site CTCGACACTCA)           1 (yes)
 9  GAACGCTCTTGGGTTCTAACCTGTTGCTT (site GAACGCTCTAA)           1 (yes)
10  ATATGTGCTTGGGTTCTAACCTGTTGCCG (site ATATGGGCTCG)           1 (yes)
11  GCTAGGGCTTGGGTTCTAACCTGTTGCAG (site GCAAGGGCTCG)           1 (yes)
12  CTCTGCTCTTGGGTTCTAACCTGTTGCTT (site CACTCCTCTAA)            0 (no)
13  CGAACTACTTGGGTTCTAACCTGTTGCAT (site CGAACTACTAT)           1 (yes)
14  ATCGGAGCTTGGGTTCTAACCTGTTGCGG (site ATCGGAGCTCA)           1 (yes)
15  GCGACATCTTGGGTTCTAACCTGTTGCCT (site GCGACATCTAG)           1 (yes)
16  AGAAGTACTTGGGTTCTAACCTGTTGCGG (site AGAAGTACTCC)           1 (yes)
17  CGAACCGCTTGGGTTCTAACCTGTTGCCT (site CAAACCGCTAG)           1 (yes)
18  TACAGTCCTTGGGTTCTAACCTGTTGCCT (site TACAGTCCTAG)           1 (yes)
19  CGCTTGTCTTGGGTTCTAACCTGTTGCCT (site CGCTGGTCTAG)           1 (yes)
20  GTGTATCCTTGGGTTCTAACCTGTTGCAT (site GTGTCTCCTAT)           1 (yes)
21  CTCGTAACTTGGGTTCTAACCTGTTGCCT (site CTCGTCACTAG)            0 (no)
22  CGTAGCCCTTGGGTTCTAACCTGTTGCGG (site ACATATACTAA)           1 (yes)
23  GTACAGACTTGGGTTCTAACCTGTTGCCT (site GTACAGACTAG)           1 (yes)
24  AGTCCACCTTGGGTTCTAACCTGTTGCCT (site TGTCCACCTAG)           1 (yes)
25  GAATATTCTTGGGTTCTAACCTGTTGCTT (site GAATGTTCTAA)            0 (no)
26  CTAGACTCTTGGGTTCTAACCTGTTGCTC (site CTAGACTCTCA)            0 (no)
27  TAGTGGACTTGGGTTCTAACCTGTTGCCA (site TAGTGGACTTG)           1 (yes)
28  TACTCAACTTGGGTTCTAACCTGTTGCCT (site TACTTAACTAG)            0 (no)
29  TCTAAGTCTTGGGTTCTAACCTGTTGCCG (site TCTAAGTCTCG)           1 (yes)
30  GTTGCGGCTTGGGTTCTAACCTGTTGCCT (site GTTCCGGCTAG)            0 (no)
31  GGGTCCTCTTGGGTTCTAACCTGTTGCCT (site GGGTCCTCTAG)           1 (yes)
32  TAGTGAACTTGGGTTCTAACCTGTTGCAC (site TAGTGAACTGT)           1 (yes)
33  GTCGTAGCTTGGGTTCTAACCTGTTGCCT (site GGCGTAGCTAG)           1 (yes)
34  CCACGTTCTTGGGTTCTAACCTGTTGCCT (site CTACGTTCTAG)            0 (no)
35  GACGCTTCTTGGGTTCTAACCTGTTGCAT (site GACGCTTCTAT)           1 (yes)
36  CGCTGACCTTGGGTTCTAACCTGTTGCCT (site GCAACCTCTTA)           1 (yes)
37  GGGGAGCCTTGGGTTCTAACCTGTTGCTG (site GGGGAGCCTCA)           1 (yes)
38  GCAGTAGCTTGGGTTCTAACCTGTTGCCA (site GCAGTAGCTTG)           1 (yes)
39  GGATACACTTGGGTTCTAACCTGTTGCCA (site GGATCCACTTG)            0 (no)

====

# procedureDetails: recombinant barcode read abundance after kanamycin selection (control-corrected) (log10(CPM+1)); higher = more efficient recombination; sequences stand for … in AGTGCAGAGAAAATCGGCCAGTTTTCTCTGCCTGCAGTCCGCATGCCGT…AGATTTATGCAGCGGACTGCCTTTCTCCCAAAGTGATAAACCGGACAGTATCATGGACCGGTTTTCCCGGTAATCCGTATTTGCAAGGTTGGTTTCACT; site = the 11-nt target
Is recombinant barcode read abundance (log10) at least 0.2? Then Criterion met. If not, Criterion not met.

In [3]: df
Out[3]:
                                        seq   qualitativelabel
0  TACGAACCTTGGGTTCTAACCTGTTGCGT (site TAGGAGCCTAC)      Criterion met
1  AAAGGGTCTTGGGTTCTAACCTGTTGCCT (site AGAGGGTCTAG)  Criterion not met
2  GGGCCGGCTTGGGTTCTAACCTGTTGCCG (site AATGATTCTAC)      Criterion met
3  TCTTGGACTTGGGTTCTAACCTGTTGCTC (site TCTTGGACTCA)  Criterion not met
4  CTCTCATCTTGGGTTCTAACCTGTTGCCT (site CTCTCATCTAA)  Criterion not met

====

# procedureDetails: recombinant barcode read abundance after kanamycin selection (control-corrected) (log10(CPM+1)); higher = more efficient recombination; sequences stand for … in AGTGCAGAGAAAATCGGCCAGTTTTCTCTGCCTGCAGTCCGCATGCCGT…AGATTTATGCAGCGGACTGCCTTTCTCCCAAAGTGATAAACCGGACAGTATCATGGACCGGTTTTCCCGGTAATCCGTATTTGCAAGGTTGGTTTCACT; site = the 11-nt target
measuredMetric: recombinant barcode read abundance (log10)

>>> print(df.to_string())
                                         seq  recordedmeasurement
 0  GATTCTCCTTGGGTTCTAACCTGTTGCGT (site GATTCTCCTAA)               0.0946
 1  CCTGAGTCTTGGGTTCTAACCTGTTGCCT (site CCTGATTCTAG)               0.0908
 2  GGTTCTTCTTGGGTTCTAACCTGTTGCCT (site GTTTCTTCTAG)                 0.19
 3  ACGCGTGCTTGGGTTCTAACCTGTTGCGG (site CTAGTAACTTG)                0.019
 4  CGTCGACCTTGGGTTCTAACCTGTTGCAT (site ACCTCTTCTTA)               0.0126
 5  AGGTTCCCTTGGGTTCTAACCTGTTGCTG (site AGGTTCCCTAA)                0.154
 6  GGAGCTTCTTGGGTTCTAACCTGTTGCCT (site GGAGCTTCTAG)                 1.33
 7  CGTCTAGCTTGGGTTCTAACCTGTTGCAT (site TCGGCCTCTTA)               0.0729
 8  TGAGCACCTTGGGTTCTAACCTGTTGCCT (site AGAGGACCTAG)                0.158
 9  ATCCCCTCTTGGGTTCTAACCTGTTGCCT (site ATCGCCTCTAG)                0.031
10  TGGTACGCTTGGGTTCTAACCTGTTGCCT (site TGGTACGCTAG)                 1.45
11  ATCCAACCTTGGGTTCTAACCTGTTGCCT (site ATCCAACCTAG)                 1.89
12  AGGAGCCCTTGGGTTCTAACCTGTTGCGA (site CGGAGCCCTCC)               0.0589
13  CCTGAATCTTGGGTTCTAACCTGTTGCCT (site CCTGACTCTAG)                 0.19
14  AATGAATCTTGGGTTCTAACCTGTTGCCT (site AATGGATCTAG)                 0.53
15  CACCTGTCTTGGGTTCTAACCTGTTGCGG (site AGATATACTAA)               0.0793
16  AACGAGTCTTGGGTTCTAACCTGTTGCCT (site ACCGAGTCTAG)                0.152
17  GTGGTAACTTGGGTTCTAACCTGTTGCCT (site GTGGTAACTAG)                0.647
18  TAGTTAGCTTGGGTTCTAACCTGTTGCCC (site TAGTTAGCTAG)               0.0394
19  ACGACTCCTTGGGTTCTAACCTGTTGCTT (site ACGACTCCTAA)               0.0167
20  CTAGTGTCTTGGGTTCTAACCTGTTGCAC (site CTAGTGTCTGT)                 1.88

All values here come from the supplement of paper PMC11208160.
